Reference source: PubChem BioAssay (Tox21)

test-description: qHTS assay to test for compound auto fluorescence at 535 nm (green) in HepG2 cells (AID 720675)
test-conditions: green autofluorescence 485/535 nm, 1 h; series mostly up to 46 µM
Activity calls are given as the source filed them. Calls follow the shape of the dose curve; as a rule, active = well fitted curve in the direction sought with a large enough effect in the repeat runs; inconclusive = weak or mixed curves; inactive = flat fitted curve, though single readings scatter.
measured-attribute: fluorescence, % of fluorescein control

| molecule | measured-attribute | assay-value |
| --- | --- | --- |
| N=c1nc(N2CCCCC2)cc(N)n1O | fluorescence, % of fluorescein control | inactive |
| CS(=O)(=O)O | fluorescence, % of fluorescein control | inactive |
| CN1CCN(c2cc3c(cc2F)c(=O)c(C(=O)O)cn3-c2ccc(F)cc2)CC1 | fluorescence, % of fluorescein control | inactive |
| CC1=CC(C)C(C=O)CC1 (stereo unspecified) | fluorescence, % of fluorescein control | inactive |
| NC(=O)c1ccc(N)cc1 | fluorescence, % of fluorescein control | inactive |

Field request: fluorescence, % of fluorescein control | item: `CC(=O)c1ccccc1O`
inactive

Report fluorescence, % of fluorescein control for `COC(=O)NN` please.
inactive

What value of measured fluorescence, % of fluorescein control is listed for `NCCc1cnc[nH]1` ?
inactive

I'd like to know its fluorescence, % of fluorescein control. The molecule in question is OC(CCN1CCCCC1)(c1ccccc1)C1CC2C=CC1C2 (stereo unspecified)
inactive

Any idea what fluorescence, % of fluorescein control was measured for `Nc1ccc(S(=O)(=O)Nc2ccnn2-c2ccccc2)cc1` ?
inactive

// returns reported fluorescence, % of fluorescein control for input `CN(C(=O)c1c(O)c2ccccc2n(C)c1=O)c1ccccc1`
inactive

====

test-description: qHTS assay to identify small molecule phospholipidosis (PLD) inducers (AID 1259344)
test-conditions: HepG2 phospholipidosis, LipidTOX Red imaging, 24 h; series mostly up to 38.3 µM
Inconclusive results are not listed. Active and inactive are the calls of the source. The call rests on the fitted dose curve; in most records, active means well fitted activation curve with a large enough effect; inconclusive means small, poorly fitted or top-dose-only effect; inactive means flat fitted curve, though single readings scatter.
Answer with one of the outcomes given here: active, inactive

Use the examples below as a reference point.
| compound | category-label |
| --- | --- |
| C[C@@H]1CCN(C(=O)[C@H](CCCN=C(N)N)NS(=O)(=O)c2cccc3c2NC[C@H](C)C3)[C@@H](C(=O)O)C1 | inactive |
| O=C(CCCN1CCN(c2ccccn2)CC1)c1ccc(F)cc1 | inactive |
| O=C(O)Cc1ccc(CCNS(=O)(=O)c2ccc(Cl)cc2)cc1 | inactive |
| Cc1cccc(C)c1NC(=O)C(C)N (centres undefined) | inactive |
| COc1cc(C(=O)N2CCCCCCC2)cc(OC)c1OC | inactive |

# lookup: test call for `CCCN(CCC)CCc1cccc2c1CC(=O)N2`
inactive

Fill in: this test's call for C[N+](C)(C)CC(O)CC(=O)[O-] (centres undefined) is ___
inactive

Called result for `CC[N+](C)(C)c1cccc(O)c1`
inactive

Entry `Cc1[nH]c(=O)c(C#N)cc1-c1ccc2nccn2c1` : call = ?
inactive

Tell me the recorded outcome of this test for CC(C)CCCC(C)N (centres undefined) .
inactive

Entry `NCCCNCCSP(=O)(O)O` : call = ?
inactive

Query: recorded result category for `Nc1ccc(S(=O)(=O)Nc2ccnn2-c2ccccc2)cc1` in this test
inactive

Field: outcome | Entry: `Cc1cccn2c(=O)c(-c3nnn[nH]3)cnc12`
inactive

Per the records of this test, what outcome belongs to `CN1CC(=O)NC1=N` ?
inactive

Hi team, can someone confirm the assay call for `Cc1c(NC(C)C)c(=O)n(-c2ccccc2)n1C` ?
inactive
